methodDescription: Bioavailability after Direct Intra-Duodenal Infusion (DIDI) administration in rat
Type: in vivo
conditionParameters: female, Wistar Han, plasma, other: direct intra-duodenal infusion (DIDI), active: sodium salt of compound 147, AUC0-2 DIDI vs intravenous, read-out: DIDI (bioavailability F after Direct Intra-Duodenal Infusion)
propertyMeasured: bioavailability (%)

compound	endpointValue
CCC1(C(=O)[O-])OC(OC2C(COS(=O)(=O)[O-])OC(OC3COC(OC4C(COS(=O)(=O)[O-])OC(OC)C(OS(=O)(=O)[O-])C4OC)[C@H](OCC(=O)[O-])C3OC)C(OS(=O)(=O)[O-])C2OS(=O)(=O)[O-])C(OC)C(OC)C1OC1OC(COS(=O)(=O)[O-])C(OCCOCCOCCOCCN)C(OC)C1OC.[Na+].[Na+].[Na+].[Na+].[Na+].[Na+].[Na+].[Na+] (stereo partly shown) [Sodium salt of 147 without formulation]	1

These entries and their values trace back to patent US9259389B2.
